Origin of measurements: patent US20070128270A1

- PROCEDURE_SUMMARY: physchem
- Assay type: physicochemical
- RECORDED_CONDITIONS: Solubility
MEASUREMENT_KIND: solubility (µg/mL)

[
  {
    "SMILES_DATA": "CNC(=O)c1c(-c2ccc(F)cc2)oc2cc(N(CCO)S(C)(=O)=O)c(C3CC3)cc12",
    "READOUT_VALUE": 20
  }
]
